Hello, the source for this data is the supplement of paper PMC10065799, in case you need it.

# MEASURED TARGET: SHP2-C SH2;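 note: peptide library displayed on the E. coli surface as eCPX fusions, selected cells deep-sequenced, score is each peptide's frequency after selection divided by its frequency in the input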
# PROCEDURE SUMMARY: SH2 binding enrichment of the phosphorylated peptide, bacterial display (enrichment ratio); higher = better substrate or ligand; peptides without Tyr show the background
RECORDED METRIC: SH2 binding enrichment
The response must contain the number and no unit.

Recorded SH2 binding enrichment, per entry:
QUERY SEQUENCE: HESEIYGKVCY [CSRP3_Y57_C58G]
ASSAY RESULT: 0.344
//
QUERY SEQUENCE: FRQNVYIPGSN [PCDHGA1_Y895_YF]
ASSAY RESULT: 0.602
//
QUERY SEQUENCE: DNAFQYMLTDR [MYH7_Y164_YF]
ASSAY RESULT: 0.767
//
QUERY SEQUENCE: IATAIYSGDKI [UGGT2_Y823]
ASSAY RESULT: 0.674
//
QUERY SEQUENCE: SIIKDYFHRGT [GATM_Y203_A208T]
ASSAY RESULT: 0.631
//
QUERY SEQUENCE: CCKNRYDKDKP [THAP1_Y14_G9C]
ASSAY RESULT: 0.686
//
QUERY SEQUENCE: TSQSQYSSFRE [CCDC170_Y323_F324S]
ASSAY RESULT: 0.779
//
QUERY SEQUENCE: SRVNKYSTAFG [GJB3_Y16_G12R]
ASSAY RESULT: 1.3

Requested field: SH2 binding enrichment. Item: DYDHSYYFIAT [ESD_Y262_G257D]
0.589

Also EVDETYVPKKF [ALB_Y521_E525K] , if possible.
0.775

Also VGTTAYVAPEA [IRAK4_Y354_M355V] , if possible.
0.76

Also CTTILYNYMCN [TP53_Y234_H233L] , if possible.
1.9

Also RSGIYYKPESL [L2HGDH_Y103_H98R] , if possible.
0.745

Also VPVNGYQPVPA [ROR2_Y824] , if possible.
0.634

---

# Tested on: AncSZ
# PROCEDURE SUMMARY: phosphorylation enrichment, bacterial display (enrichment ratio); higher = better substrate or ligand; peptides without Tyr show the background
Each entry gets N if its phosphorylation enrichment stays under 0.8, and Y if its phosphorylation enrichment is 0.8 or above.

Field: example entries. Status: answers known.
QUERY SEQUENCE: KTGDYYDLYGG [PTPN11_Y63_N58K]
ANSWER LABEL: Y
--
QUERY SEQUENCE: YEDTLYTVLHR [UNC13D_Y61_A59T]
ANSWER LABEL: Y
--
QUERY SEQUENCE: VTSLKYSTSPY [BRIP1_Y916]
ANSWER LABEL: N
--
QUERY SEQUENCE: FFRDGYMPRQF [GSS_Y270_YF]
ANSWER LABEL: N
--
QUERY SEQUENCE: NIKKEYAKMVQ [PMS2_Y181]
ANSWER LABEL: N

hey, is phosphorylation enrichment for this one >= 0.8? LNPLIYSLRNK [OR5R1_Y290]
Y

Also TLPAFYMGNFS [GLB1_Y552] , if possible.
Y

Also ERDYTYEELLN [EIF2S2_Y176] , if possible.
Y

Also RFLRGYQQDAY [HLA-A_Y137_R138Q] , if possible.
Y

Also NQELIYEGRRL [TBK1_Y354] , if possible.
N

---

# System: c-Abl (mouse)
# PROCEDURE SUMMARY: phosphorylation enrichment, bacterial display (enrichment ratio); higher = better substrate or ligand; peptides without Tyr show the background
RECORDED METRIC: phosphorylation enrichment
The response must contain the number and no unit.

Recorded phosphorylation enrichment, per entry:
QUERY SEQUENCE: GHGRFYMKEAI [PGM1_Y66_D62H]
phosphorylation enrichment: 0.536

QUERY SEQUENCE: FEEDSYSHVMA [FDPS_Y388_I391V_YF]
phosphorylation enrichment: 0.731

QUERY SEQUENCE: FEREQYADRTR [RBM4_Y355_A359T_YF]
phosphorylation enrichment: 0.588

QUERY SEQUENCE: AGREIYESDKC [TTN_Y4424]
phosphorylation enrichment: 0.616

QUERY SEQUENCE: NQDRTYFESVR [SPEN_Y632_YF]
phosphorylation enrichment: 0.618

QUERY SEQUENCE: RLLVVYPWTQR [HBB_Y36]
phosphorylation enrichment: 0.77

QUERY SEQUENCE: IYETDYYQKGG [INSR_Y1189_R1191Q]
phosphorylation enrichment: 0.629

QUERY SEQUENCE: SHMVDYQPYRK [TEX37_Y25]
phosphorylation enrichment: 0.91

QUERY SEQUENCE: PLDGEYFTLPI [TP53_Y327_Q331P]
phosphorylation enrichment: 25

QUERY SEQUENCE: DLRTGYSVPYG [TGM1_Y370_Y365D]
phosphorylation enrichment: 0.568

Requested field: phosphorylation enrichment. Item: LIPIKYKAMKK [MYD88_Y257]
0.325

Also NLMPAYFKCIQ [CYP21A2_Y190_YF] , if possible.
1.09

Also PRLMLYNPTTY [EGFR_Y270_P266R] , if possible.
0.812

Also SDVDLYQVRTA [PSMD9_Y70] , if possible.
0.735

---

phosphorylation enrichment by entry:
# MEASURED TARGET: Hck (UniProt P08631)
# Sequence (P08631 whole entry, looked up): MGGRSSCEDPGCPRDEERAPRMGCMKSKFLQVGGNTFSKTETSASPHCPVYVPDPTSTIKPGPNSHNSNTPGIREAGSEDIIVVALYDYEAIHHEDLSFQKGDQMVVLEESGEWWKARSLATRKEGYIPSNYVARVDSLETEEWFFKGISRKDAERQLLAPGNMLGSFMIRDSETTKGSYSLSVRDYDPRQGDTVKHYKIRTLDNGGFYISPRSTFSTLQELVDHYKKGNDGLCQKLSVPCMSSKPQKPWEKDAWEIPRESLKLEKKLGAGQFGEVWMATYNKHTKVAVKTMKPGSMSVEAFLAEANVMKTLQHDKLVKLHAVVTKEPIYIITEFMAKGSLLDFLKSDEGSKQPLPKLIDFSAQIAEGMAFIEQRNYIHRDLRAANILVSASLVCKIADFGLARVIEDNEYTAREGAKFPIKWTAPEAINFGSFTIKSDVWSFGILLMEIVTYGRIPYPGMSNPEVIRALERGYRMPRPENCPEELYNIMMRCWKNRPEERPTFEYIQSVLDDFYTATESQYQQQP
# PROCEDURE SUMMARY: phosphorylation enrichment, bacterial display (enrichment ratio); higher = better substrate or ligand; peptides without Tyr show the background

QUERY SEQUENCE: HLTNQFMQRVA [PABPC4_Y382_Y382F]
MEASURED TARGET: Hck (UniProt P08631)
phosphorylation enrichment: 0.722
//
QUERY SEQUENCE: NQELIYEGRRL [TBK1_Y354]
MEASURED TARGET: Hck (UniProt P08631)
phosphorylation enrichment: 9.83
//
QUERY SEQUENCE: QFNIQYSSSAA [ERBB2IP_Y981_YF]
MEASURED TARGET: Hck (UniProt P08631)
phosphorylation enrichment: 0.673
//
QUERY SEQUENCE: MAFDRYVAICS [OR8D4_Y123_C120Y_YF]
MEASURED TARGET: Hck (UniProt P08631)
phosphorylation enrichment: 0.665
//
QUERY SEQUENCE: FQSKHYACIRQ [TIMP3_Y182_YF]
MEASURED TARGET: Hck (UniProt P08631)
phosphorylation enrichment: 0.392

Requested field: phosphorylation enrichment. Item: YTTIHYNYMCN [TP53_Y234_C229Y]
0.917

Also KVKEQYQDVPM [PKP2_Y659] , if possible.
0.48

Also TNRSVYFKPSL [NUP153_Y382] , if possible.
0.551

Also PECEWYKNGVK [TTN_Y2112] , if possible.
0.73

Also SFVMVYEGNAR [INSR_Y1038_G1035V] , if possible.
0.747

Also MHLRQYELLGG [GNAS_Y391] , if possible.
0.506

Also HFVFFYSFLLK [PTEN_Y178_R173H_YF] , if possible.
0.819

Also DESEDCRDTVV [CNNM3_Y456_Y456C] , if possible.
0.587

Also TFGQVYKGPHV [TNIK_Y40_R43P_YF] , if possible.
0.448

Also KMGNEYVTKGQ [MYH7_Y410_V406M] , if possible.
0.451

Also CNNFIYGGCRG [SPINT2_Y163] , if possible.
3.35

Also PCLLRYLQLDF [ASB10_Y457_R453C] , if possible.
0.783

Also NTFEKYWLFFQ [GATM_Y103_P105L_YF] , if possible.
0.68

Also "STKELYEKFMI" , if possible.
1.01

Also GQKVAYGGTGD [ALDH3A1_Y305] , if possible.
0.387

Also HTLIKYTDGDQ [PUS7L_Y94] , if possible.
1.01

Also PSSRDYKHNIK [PIGN_Y227] , if possible.
0.474

Also FSDQVYRQRRK [TH_Y230] , if possible.
0.493

---

phosphorylation enrichment by entry:
# MEASURED TARGET: Fes (UniProt P07332)
# Sequence (P07332 whole entry, looked up): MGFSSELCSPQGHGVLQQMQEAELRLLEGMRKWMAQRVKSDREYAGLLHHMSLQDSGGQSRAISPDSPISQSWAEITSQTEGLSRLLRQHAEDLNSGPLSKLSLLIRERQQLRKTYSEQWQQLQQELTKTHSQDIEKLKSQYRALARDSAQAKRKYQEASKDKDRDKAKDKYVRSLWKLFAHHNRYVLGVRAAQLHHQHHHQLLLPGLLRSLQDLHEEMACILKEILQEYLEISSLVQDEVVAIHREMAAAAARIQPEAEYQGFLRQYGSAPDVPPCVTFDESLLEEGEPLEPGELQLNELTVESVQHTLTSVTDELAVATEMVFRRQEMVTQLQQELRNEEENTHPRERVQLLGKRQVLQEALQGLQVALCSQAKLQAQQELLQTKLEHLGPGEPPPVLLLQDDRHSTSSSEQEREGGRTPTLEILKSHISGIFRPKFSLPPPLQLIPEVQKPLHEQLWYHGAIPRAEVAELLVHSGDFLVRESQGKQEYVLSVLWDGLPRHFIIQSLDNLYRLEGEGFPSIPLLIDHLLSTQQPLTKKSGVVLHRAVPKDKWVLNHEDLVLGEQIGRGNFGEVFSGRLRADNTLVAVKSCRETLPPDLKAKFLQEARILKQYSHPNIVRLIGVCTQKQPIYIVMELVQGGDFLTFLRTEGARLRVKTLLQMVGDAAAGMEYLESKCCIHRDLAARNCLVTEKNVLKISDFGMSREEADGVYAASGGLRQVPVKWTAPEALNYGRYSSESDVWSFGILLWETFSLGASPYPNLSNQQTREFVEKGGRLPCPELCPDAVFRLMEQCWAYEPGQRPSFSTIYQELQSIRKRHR
# PROCEDURE SUMMARY: phosphorylation enrichment, bacterial display (enrichment ratio); higher = better substrate or ligand; peptides without Tyr show the background
The response must contain the number and no unit.

Recorded phosphorylation enrichment, per entry:
QUERY SEQUENCE: ASTHVYQIMNH [ITK_Y588]
phosphorylation enrichment: 0.722
--
QUERY SEQUENCE: LKVKAYRFSIS [LCT_Y974]
phosphorylation enrichment: 1.22
--
QUERY SEQUENCE: QMVGKYASSYM [AVPR2_Y124_M123K]
phosphorylation enrichment: 0.736

With those in mind, consider the next sequence.
Requested field: phosphorylation enrichment. Item: RPYRPYIIRGM [LRP5_Y1531]
1.4
